The reported numbers originate from patent US8999984B2.

Target: recombinant MIF (rMIF) (Homo sapiens)
Construct: made in house
Sequence (P14174 2-115 limits assumed): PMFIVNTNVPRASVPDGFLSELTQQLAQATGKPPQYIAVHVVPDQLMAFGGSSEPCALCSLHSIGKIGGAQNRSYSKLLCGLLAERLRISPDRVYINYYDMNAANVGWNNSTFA
Test: L-dopachrome methyl ester tautomerase assay
Assay type: biochemical
Conditions: 500 nM rMIF pre-mixed 5 or 10 min with inhibitor, 2 mM L-dopachrome methyl ester; FIG. 8; read-out: IC50, MIF enzyme (tautomerase) inhibition
quantity.kind: IC50

• Ic1cc(-c2ccccc2)ncn1 = ~5 µM
